# assayed.target: T1, His-tagged, full-length PCSK9 (human, UniProt Q8NBP7 31-692)
# T1 construct: secreted PCSK9 is autocatalytically cleaved into prodomain and catalytic domain + CRD (from S153), which stay associated; also called His-PCSK9; proprotein convertase subtilisin/kexin type 9; not shown: His tag
# T1 sequence (Q8NBP7 31-692 limits assumed): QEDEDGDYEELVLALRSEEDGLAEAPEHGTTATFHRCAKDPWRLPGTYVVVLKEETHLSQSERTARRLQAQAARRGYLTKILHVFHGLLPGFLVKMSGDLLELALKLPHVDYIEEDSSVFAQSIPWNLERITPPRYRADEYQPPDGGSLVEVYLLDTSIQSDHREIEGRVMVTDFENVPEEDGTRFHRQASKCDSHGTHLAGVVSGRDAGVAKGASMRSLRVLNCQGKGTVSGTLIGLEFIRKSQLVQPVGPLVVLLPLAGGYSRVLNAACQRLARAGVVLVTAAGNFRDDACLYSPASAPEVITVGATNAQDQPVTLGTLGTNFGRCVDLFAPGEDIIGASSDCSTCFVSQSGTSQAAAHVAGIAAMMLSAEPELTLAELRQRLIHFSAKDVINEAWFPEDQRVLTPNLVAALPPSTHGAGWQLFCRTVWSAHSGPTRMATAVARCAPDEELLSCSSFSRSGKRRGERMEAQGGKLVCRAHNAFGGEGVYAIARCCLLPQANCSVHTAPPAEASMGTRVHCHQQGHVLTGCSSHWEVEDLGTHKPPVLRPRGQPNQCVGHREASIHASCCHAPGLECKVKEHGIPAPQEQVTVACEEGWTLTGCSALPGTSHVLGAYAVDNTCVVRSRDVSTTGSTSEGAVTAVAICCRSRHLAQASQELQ
# experiment: TR-FRET competition (PCSK9/EGF(A) assay); competitor EGF(A)-Fc;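 note: proximity signal from anti-His APC on PCSK9 paired with anti-Fc europium on the Fc ligand, read as normalized TR-FRET ratio across compound dilutions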
Bridge positions count the residues as written; N and C are the ends.
measured.quantity: IC50

INSERT INTO assay_data (binder, recorded_result) VALUES
  ('Ac-CRLPWNAQRIGLPC-NH2 (disulfide 1-14; SMILES CC[C@H](C)[C@@H]1NC(=O)[C@H](CCCNC(=N)N)NC(=O)[C@H](CCC(N)=O)NC(=O)[C@H](C)NC(=O)[C@H](CC(N)=O)NC(=O)[C@H](Cc2c[nH]c3ccccc23)NC(=O)[C@@H]2CCCN2C(=O)[C@H](CC(C)C)NC(=O)[C@H](CCCNC(=N)N)NC(=O)[C@@H](NC(C)=O)CSSC[C@@H](C(N)=O)NC(=O)[C@@H]2CCCN2C(=O)[C@H](CC(C)C)NC(=O)CNC1=O) [Compound 74 (Ac-CRLPWNAQRIGLPC-NH2)]', '> 50 µM');
